Reported inhibition values for the following molecules.
# TESTED TARGET: Bifunctional protein GlmU (Mycobacterium tuberculosis (strain ATCC 25618 / H37Rv)) (UniProt P9WMN3)
# Sequence (P9WMN3 whole entry, looked up): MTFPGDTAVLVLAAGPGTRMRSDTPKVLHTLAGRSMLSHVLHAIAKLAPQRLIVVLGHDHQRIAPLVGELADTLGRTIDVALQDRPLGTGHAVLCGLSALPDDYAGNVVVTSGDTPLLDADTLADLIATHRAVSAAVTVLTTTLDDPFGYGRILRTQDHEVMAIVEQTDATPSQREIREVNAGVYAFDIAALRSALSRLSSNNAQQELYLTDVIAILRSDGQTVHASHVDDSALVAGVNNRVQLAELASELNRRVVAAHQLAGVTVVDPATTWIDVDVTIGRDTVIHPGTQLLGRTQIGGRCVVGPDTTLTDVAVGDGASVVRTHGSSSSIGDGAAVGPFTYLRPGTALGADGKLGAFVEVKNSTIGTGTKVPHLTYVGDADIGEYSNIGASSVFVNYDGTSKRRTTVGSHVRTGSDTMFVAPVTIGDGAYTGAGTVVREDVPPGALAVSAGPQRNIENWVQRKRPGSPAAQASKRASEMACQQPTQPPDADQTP
# RUN DESCRIPTION: inhibition of mycobacterial GlmU enzyme – biochemical, glucosamine-1-phosphate acetyltransferase (AID 1376);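 note: 0% = complete reaction with vehicle and 100% = reaction without substrate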
# MEASUREMENT SETUP: M. tuberculosis GlmU acetyltransferase enzyme assay; stronger effect = higher value;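 tested at 30 µM in the primary screen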
In all, about 220,000 compounds went through this assay and about 530 (0.24%) were called active. Only a selection was taken, and actives are over-represented in it overall. Results with a measured potency or affinity are listed apart.
Hi! Could you send only the number? It should be in %, unit omitted.

| MOLECULE | READING UNIT | inhibition |
| --- | --- | --- |
| Cn1cc(/C=N/NC(=O)c2ccc(C#N)cc2F)c2ccccc21 | % | 1.51 |
| O=C1C2C3C=CC(C3)C2C(=O)N1CCCCCCN1C(=O)C2C3C=CC(C3)C2C1=O (stereo not given) | % | -4.36 |
| O=C1c2ccccc2CC1(Cc1ccccc1)Cc1ccccc1 | % | -4.43 |

Ask | // inhibition lookup, key: COc1cc2nc(C3CCC3)n(NC(=O)C3CCC(OC)CC3)c(=O)c2cc1OC (stereo not given)
Reply | 0.09

Ask | // inhibition lookup, key: O=c1cc2oc3cc(O)c(O)cc3c(-c3ccccc3O)c-2cc1O
Reply | 15.4

Ask | // inhibition lookup, key: O=C(O)c1cccc(N2C(=O)/C(=C/c3ccc(SCc4ccc(Cl)cc4)o3)SC2=S)c1
Reply | 33.7

Ask | // inhibition lookup, key: Cc1c2cc(O)c(=O)cc-2oc2cc(O)c(O)cc12
Reply | 27.1

Ask | // inhibition lookup, key: Cc1ccc(C(=O)NC(=S)NNC(=O)CC#N)cc1
Reply | -2.12

Ask | // inhibition lookup, key: Cc1nn(Cc2ccc(Cl)cc2)c(=O)n1N(C)c1ncc(C(F)(F)F)cc1Cl
Reply | -1.59

Ask | // inhibition lookup, key: O=C1NC(=S)S/C1=C\c1ccc(SCc2ccccc2)o1
Reply | 68.3

Ask | // inhibition lookup, key: COc1ccccc1NC(=O)N1CCC(c2nnc(SCC(N)=O)n2C)CC1
Reply | 5.75

Ask | // inhibition lookup, key: O=C(O)c1cc(N=Nc2c(O)ccc3ccccc23)cc(C(=O)O)c1
Reply | 25.6

Ask | // inhibition lookup, key: O=C(O)c1cc(O)c2c(c1)C(=O)c1cc(O)cc(O)c1C2=O
Reply | 13.3

Ask | // inhibition lookup, key: O=S(=O)(O)c1cccc(N=Nc2c(O)ccc3ccccc23)c1
Reply | 3.89

Ask | // inhibition lookup, key: CC1(C)CC(=O)c2c(oc3cc(O)c(O)cc23)C1
Reply | -1.56

Ask | // inhibition lookup, key: COC(=O)CCCC1=CC2=C(c3ccccc3)C(=O)C(C)(OC(=O)C3CCCC3)C(=O)C2=CN1C1CC1 (stereo not given)
Reply | 1.9

Ask | // inhibition lookup, key: Fc1ccc(N2CCN(c3ncnc4nc[nH]c34)CC2)cc1
Reply | 4.66

Ask | // inhibition lookup, key: CCC1=NN2C(=N)/C(=C\c3ccc(SCc4ccco4)o3)C(=O)N=C2S1
Reply | 4.74

Ask | // inhibition lookup, key: COc1ccc(OC)c(-c2oc3ccccc3c(=O)c2O)c1
Reply | 0.78
